# STUDY SYSTEM: T1, AAV8 (adeno-associated virus 8)
# T1 construct: also called adeno-associated virus serotype 8
# METHOD: SPR, AAV amine-coupled to CM5 chip;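 note: nanobodies flowed as analyte at seven concentrations spanning 1–100 nM over immobilized AAV (500–800 RU), kinetic constants derived by fitting the binding curves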
PROPERTY MEASURED: Kd (nM)
Value expressed in nM; do not type the unit.

Query: I would be grateful if you could share the reported Kd for A4-059 (VHH) VHH: VQLQESGGGAVQPGGSLRLSCAASGSHFSLNTMGWYRRAPGKQRELVATVTRGGSTNYADSVKGRFTISRDNAKNTIYLQMNSLRPEDTAVYYCHVDEVRQSTWTTSNLWGQGTQVTVSS .
Result: 29

Query: I would be grateful if you could share the reported Kd for A4-092 (VHH) VHH: VQLQESGGGLVQTGGSLRLSCLASGSIFSINTMGWYRQRAGKQRELVATVTRAGSTNYADSVKGRFTISRDNAKNTVYLQMNSLRPEDTAVYYCHVDEIRESSWTTSNLWGQGTQVTVSS .
Result: 0.106

Query: I would be grateful if you could share the reported Kd for A4-066 (VHH) VHH: VQLQESGGGLVQTGGSLRLSCAASGRAFSLNTMGWYRQAPGKQRELVATVTRGGSTNYAGSVKGRFTISRDNAKNTVYLQMNSLRPEDTAVYYCHVDEVRESSWTTSNLWGQGTQVTVSS .
Result: 21.6

Query: I would be grateful if you could share the reported Kd for A4-088 (VHH) VHH: VQLQESGGGLVQTGGSLRLSCAASGSRFSLNTMGWYRQAPGKQRELVAAVTRGGNTNYGDFVKGRFTISRDNAKNTVYLQMNSLRPEDTAVYYCHVDELRESSWTTSNLWGQGTQVTVSS .
Result: 538
